target: Epidermal growth factor receptor (Homo sapiens, UniProt P00533); assay: Inhibition of EGFR in human A431 cells by HTRF assay
Sequence (P00533 whole entry): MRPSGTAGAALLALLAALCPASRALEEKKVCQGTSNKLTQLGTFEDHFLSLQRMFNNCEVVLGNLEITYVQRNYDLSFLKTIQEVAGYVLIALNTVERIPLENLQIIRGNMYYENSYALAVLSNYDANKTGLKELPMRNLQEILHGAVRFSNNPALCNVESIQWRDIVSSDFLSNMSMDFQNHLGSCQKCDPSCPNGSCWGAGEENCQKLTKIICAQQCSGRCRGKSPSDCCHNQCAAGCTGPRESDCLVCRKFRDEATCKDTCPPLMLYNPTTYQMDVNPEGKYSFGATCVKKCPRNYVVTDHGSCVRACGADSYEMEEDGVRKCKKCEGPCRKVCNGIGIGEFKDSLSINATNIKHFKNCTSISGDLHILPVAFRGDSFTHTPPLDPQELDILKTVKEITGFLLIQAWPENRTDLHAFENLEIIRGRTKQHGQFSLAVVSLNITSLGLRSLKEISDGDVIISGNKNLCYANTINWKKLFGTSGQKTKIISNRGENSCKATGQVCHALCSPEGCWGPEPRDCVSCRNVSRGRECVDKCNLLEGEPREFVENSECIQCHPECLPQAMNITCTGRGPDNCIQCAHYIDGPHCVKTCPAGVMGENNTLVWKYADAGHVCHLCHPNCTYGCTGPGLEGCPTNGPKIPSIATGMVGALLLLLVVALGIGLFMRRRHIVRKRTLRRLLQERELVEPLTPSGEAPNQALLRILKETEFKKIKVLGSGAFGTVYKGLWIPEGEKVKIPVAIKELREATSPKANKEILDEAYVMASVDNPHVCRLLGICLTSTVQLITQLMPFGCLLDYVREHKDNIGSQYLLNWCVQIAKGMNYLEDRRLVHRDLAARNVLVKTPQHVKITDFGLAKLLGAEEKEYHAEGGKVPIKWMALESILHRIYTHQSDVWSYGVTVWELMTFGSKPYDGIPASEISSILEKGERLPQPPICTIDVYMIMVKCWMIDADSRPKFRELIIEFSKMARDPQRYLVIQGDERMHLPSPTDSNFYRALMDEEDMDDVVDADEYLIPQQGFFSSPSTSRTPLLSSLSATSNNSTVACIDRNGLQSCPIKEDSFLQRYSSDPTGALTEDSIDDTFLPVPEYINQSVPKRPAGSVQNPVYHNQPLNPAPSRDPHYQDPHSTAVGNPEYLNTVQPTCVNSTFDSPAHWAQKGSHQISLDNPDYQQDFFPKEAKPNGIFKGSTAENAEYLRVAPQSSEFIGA
Rule: IC50 below 10000 nM gives MET, anything at or above gives NOT MET.

{"columns": ["Smiles Code", "Discrete Label"],
 "data": [
  ["Cc1c(C(=O)NCCCN2CCN(C)CC2)[nH]c2cnnc(Nc3ccc(OCc4cccc(F)c4)c(Cl)c3)c12", "MET"],
  ["CCN(CC)CCNC(=O)c1cc2cnnc(Nc3ccc(OCc4cccc(F)c4)c(Cl)c3)c2[nH]1", "NOT MET"],
  ["Cc1c(C(=O)NCCN2CCOCC2)[nH]c2cnnc(Nc3ccc(OCc4cccc(F)c4)c(Cl)c3)c12", "NOT MET"],
  ["Cc1c(C(=O)NCCN2CCN(C)CC2)[nH]c2cnnc(Nc3ccc(OCc4cccc(F)c4)c(Cl)c3)c12", "MET"],
  ["CCN(CC)CCNC(=O)c1[nH]c2cnnc(Nc3ccc(OCc4cccc(F)c4)c(Cl)c3)c2c1C", "MET"]
]}

# input API: query returns whether the compound falls strictly under 10000 nM in IC50. Query: CCOC(=O)c1[nH]c(C)c2cnnc(Nc3ccc(OCc4cccc(F)c4)c(Cl)c3)c12
# output MET

# input Hi there! Is IC50 for O=C(NCCN1CCCC1)c1cc2cnnc(Nc3ccc(OCc4cccc(F)c4)c(Cl)c3)c2[nH]1 below 10000 nM, do you know?
# output NOT MET
